target-of-assay: ZCCHC9 (UniProt Q8N567)
Sequence (Q8N567 whole entry, looked up): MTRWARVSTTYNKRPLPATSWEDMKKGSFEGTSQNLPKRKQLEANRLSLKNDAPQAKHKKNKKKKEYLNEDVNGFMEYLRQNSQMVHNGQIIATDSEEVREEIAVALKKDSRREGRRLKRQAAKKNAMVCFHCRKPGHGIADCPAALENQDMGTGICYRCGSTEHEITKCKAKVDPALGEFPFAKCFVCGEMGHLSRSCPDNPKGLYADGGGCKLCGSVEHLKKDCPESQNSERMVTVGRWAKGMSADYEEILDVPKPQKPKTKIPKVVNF
assay-info: log2 fold change, soluble protein after heating vs DMSO (PISA); higher = thermal stabilisation; K562 cells, 10 uM, 30 min; active = over 0.2 and 3.5 SD of the protein, either way, in both replicates (recomputed)
The full data set covers some 7,900 targets. This sample favours those with a hit. About 0.6% of all pairs of compound and target were hits.
Label rule, in plain words: log2 fold change of -0.04 and up is YES, under -0.04 is NO.

Reported log2 fold change reaches at least -0.04 for `Cc1cccc(-c2[nH]c(C(C)(C)C)nc2-c2ccc3nccnc3c2)n1` ?
NO

And the next one, Cn1cncc1[C@@](N)(c1ccc(Cl)cc1)c1ccc2c(c1)c(-c1cccc(Cl)c1)cc(=O)n2C [tipifarnib] ?
YES

And the next one, `Fc1ccc(Cl)cc1-c1nc(Nc2ccncc2)c2nccnc2n1` ?
NO

And the next one, `COc1cccc2cc(-c3nc([C@H]4CC[C@H](C(=O)O)CC4)n4ncnc(N)c34)[nH]c12` ?
NO

And the next one, CNCc1ccc(-c2[nH]c3cc(F)cc4c3c2CCNC4=O)cc1 [rucaparib] ?
YES

And the next one, Cc1cc(Nc2cc(CN3CCOCC3)c3nc(C)c(Cc4ccc(Cl)cc4F)n3n2)n[nH]1 [gandotinib] ?
YES

And the next one, CN1CCN(c2nc(C3=C(c4c[nH]c5ccccc45)C(=O)NC3=O)c3ccccc3n2)CC1 [sotrastaurin] ?
YES

And the next one, CC(C)N(C[C@H]1O[C@@H](n2cnc3c(N)ncnc32)[C@H](O)[C@@H]1O)[C@H]1C[C@@H](CCc2nc3cc(C(C)(C)C)ccc3[nH]2)C1 [pinometostat] ?
YES

And the next one, `NC(=O)c1ccc2nc(-c3ccc(Oc4ccc(Cl)cc4)cc3)[nH]c2c1` ?
YES

And the next one, CC1=C(C(=O)Nc2cc3cn[nH]c3cc2F)C(c2ccc(C(F)(F)F)cc2)CC(=O)N1 (centres undefined) ?
YES
